The reported numbers originate from ChEMBL document CHEMBL5230091.

Assay: Cytotoxicity against human Astrocyte cells assessed as cell growth inhibition
Type: toxicity, cell-based
property.name: IC50 (µM)
Hi! Could you send only the number? It should be in µM, unit omitted.

stdin: So what's the measured IC50 for this one? CCCC(=O)OCOC(=O)CCCc1ccccc1
stdout: 291

###

solubility listing for selected compounds.
Test: Aqueous solubility of compound by HPLC method
Assay type: physicochemical
Conditions: water (aqueous)
Hi! Could you send only the number? It should be in mg/mL, unit omitted.

stdin: So what's the measured solubility for this one? CN(CCOC(=O)ONC(=O)/C=C/c1cccc(S(=O)(=O)Nc2ccccc2)c1)C(=O)OCc1ccc(O[C@@H]2O[C@H](C(=O)O)[C@@H](O)[C@H](O)[C@H]2O)c([N+](=O)[O-])c1
stdout: 80

More entries:
stdin: So what's the measured solubility for this one? CN(CCOC(=O)ONC(=O)CCCCCCC(=O)Nc1ccccc1)C(=O)OCc1ccc(O[C@@H]2O[C@H](C(=O)O)[C@@H](O)[C@H](O)[C@H]2O)c([N+](=O)[O-])c1
stdout: 40

stdin: So what's the measured solubility for this one? CN(CCOC(=O)ONC(=O)/C=C/c1cccc(S(=O)(=O)Nc2ccccc2)c1)C(=O)OCc1ccc(O[C@@H]2O[C@H](C(=O)O)[C@@H](O)[C@H](O)[C@H]2O)c(N)c1
stdout: 100

stdin: So what's the measured solubility for this one? CN(CCOC(=O)ONC(=O)CCCCCCC(=O)Nc1ccccc1)C(=O)OCc1ccc(O[C@@H]2O[C@H](C(=O)O)[C@@H](O)[C@H](O)[C@H]2O)c(N)c1
stdout: 55

###

System: SF-188
Experiment: Antiproliferative activity against human SF-188 cells assessed as cell growth inhibition
Type: functional, cell-based
property.name: pIC50
When answering, recall that pIC50 equals minus log10 of the concentration in mol/L, and write that number alone.

stdin: So what's the measured pIC50 for this one? CCCC(=O)OCOC(=O)CCCc1ccccc1
stdout: 4.12
